Listed compounds paired with reported Inhibition of COX-1
Target: COX-1 (Ovis aries)
Construct: purchased Cayman Chemicals
Sequence (P05979 25-600): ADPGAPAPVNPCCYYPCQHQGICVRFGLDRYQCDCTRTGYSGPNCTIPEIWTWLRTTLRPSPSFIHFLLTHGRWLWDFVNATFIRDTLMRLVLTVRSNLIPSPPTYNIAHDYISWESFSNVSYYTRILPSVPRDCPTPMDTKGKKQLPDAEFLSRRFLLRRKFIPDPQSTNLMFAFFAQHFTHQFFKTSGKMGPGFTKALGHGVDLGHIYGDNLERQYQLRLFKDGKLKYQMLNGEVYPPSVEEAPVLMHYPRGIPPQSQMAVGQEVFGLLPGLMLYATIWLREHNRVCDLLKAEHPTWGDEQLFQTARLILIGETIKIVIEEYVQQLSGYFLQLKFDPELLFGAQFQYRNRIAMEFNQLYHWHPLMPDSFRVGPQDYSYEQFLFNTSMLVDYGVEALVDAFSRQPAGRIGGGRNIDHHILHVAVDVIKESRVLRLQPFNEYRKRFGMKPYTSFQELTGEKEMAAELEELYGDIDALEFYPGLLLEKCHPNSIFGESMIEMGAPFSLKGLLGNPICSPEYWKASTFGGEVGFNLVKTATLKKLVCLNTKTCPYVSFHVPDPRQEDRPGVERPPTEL
Experiment: COX Inhibitor Screening Assay (EIA) on isolated COX-1 isoenzyme
Format: biochemical, ovine
Details: 1 µM, incubation 10 min
Field format: number, assumed %, no unit text.

CC(=O)Oc1c(Cl)cccc1C(=O)OC[CH]1[CH2][Pt-]1([Cl])([Cl])[Cl].[K+] (stereo not shown): 51.7
C=C.O.[Cl][Pt-]([Cl])[Cl].[K+] [Zeise’s salt]: 37.3
CC(=O)Oc1ccc(C)cc1C(=O)OCC[CH]1[CH2][Pt-]1([Cl])([Cl])[Cl].[K+] (stereo not shown): 60.4

Please look at the following compound next.
Measured Inhibition of COX-1, CC(=O)Oc1cc(Cl)ccc1C(=O)OCC[CH]1[CH2][Pt-]1([Cl])([Cl])[Cl].[K+] (stereo not shown) : 47.9
